# experiment-notes: Crossover dietary trial: serum AED concentration
# Assay type: in vivo, canine
# condition-info: both sexes, mixed: 17 different breeds and cross breeds, dog, in vivo, MCT diet; spread 25.00-36.75 μg/ml; p=0.4233, no significant change; read-out: serum concentration of PB
parameter-measured: concentration at 3 months (ng/mL)
Kindly answer with a numeric value in ng/mL, unit omitted.

I am curious: what concentration at 3 months value has been reported for CCC1(c2ccccc2)C(=O)NC(=O)NC1=O ?
32500
